Molecular target: K-Ras G13D (Homo sapiens, UniProt P01116, G13D)
Sequence (P01116 1-169 isoform P01116-2 G13D): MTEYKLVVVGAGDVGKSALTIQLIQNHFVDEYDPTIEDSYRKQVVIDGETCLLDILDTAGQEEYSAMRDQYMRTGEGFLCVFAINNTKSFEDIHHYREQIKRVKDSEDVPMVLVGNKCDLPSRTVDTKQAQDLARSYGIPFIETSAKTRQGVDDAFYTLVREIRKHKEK
Test: GTP-K-Ras and cRAF interaction assay (GppNp-K-Ras), K-Ras G13D
Conditions: read-out: K-Ras G13D GppNp Biochemical Activity (IC50)
Property Name: pIC50
Lab note: report pIC50 as minus log10 of the concentration in molar units, number only.

Molecule	pIC50
C#Cc1c(F)ccc2cc(O)cc(-c3ncc4c(N5CCOC[C@H](CC#N)C5)nc(OC[C@@]56CCCN5C[C@H](F)C6)nc4c3F)c12 (single isomer, unassigned) [Compound 14B]	8.73
C#Cc1c(F)ccc2cc(O)cc(-c3ncc4c(N5CCCOC[C@@H]5C)nc(OC[C@@]56CCCN5C[C@H](F)C6)nc4c3F)c12 (single isomer, unassigned) [Compound 16A]	7.43
C#Cc1c(F)ccc2cc(O)cc(-c3c(Cl)cc4c(N5CCCOCC5)nc(OC[C@@]56CCCN5C[C@H](F)C6)nc4c3F)c12 (atropisomer, axis not shown; (M)) [Compound 19B]	8.10

Consider the additional molecule presented here.
Which measured pIC50 value corresponds to C#Cc1c(F)ccc2cc(O)cc(-c3ncc4c(N5CCCOC[C@H]5C)nc(OC[C@@]56CCCN5C[C@H](F)C6)nc4c3F)c12 (single isomer, unassigned) [Compound 16B] ?
8.64

---

Molecular target: K-Ras G12V (Homo sapiens, UniProt P01116, G12V)
Sequence (P01116 1-169 isoform P01116-2 G12V): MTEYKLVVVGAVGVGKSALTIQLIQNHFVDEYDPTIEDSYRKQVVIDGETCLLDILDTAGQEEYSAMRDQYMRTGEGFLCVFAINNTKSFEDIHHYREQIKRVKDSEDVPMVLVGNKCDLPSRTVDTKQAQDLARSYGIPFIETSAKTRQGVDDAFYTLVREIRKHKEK
Assay: biochemical
Property Name: pIC50
Lab note: report pIC50 as minus log10 of the concentration in molar units, number only.

As a guide, the following entries are already answered.
Compound	Assayed Target	pIC50
C#Cc1c(F)ccc2cc(O)cc(-c3ncc4c(N5CCOC[C@H](O)C5)nc(OC[C@@]56CCCN5C[C@H](F)C6)nc4c3F)c12 (single isomer, unassigned) [Compound 46A]	K-Ras G12V (Homo sapiens, UniProt P01116, G12V)	6.46
C#Cc1c(F)ccc2cc(O)cc(-c3ncc4c(N5CCOC[C@@H](F)C5)nc(OC[C@@]56CCCN5C[C@H](F)C6)nc4c3F)c12 (single isomer, unassigned) [Compound 12A]	K-Ras G12V (Homo sapiens, UniProt P01116, G12V)	6.74

Consider the additional compound presented here.
// fetch K-Ras G12V (Homo sapiens, UniProt P01116, G12V) pIC50 for C#Cc1c(F)ccc2cc(O)cc(-c3ncc4c(N5CCCO[C@H](C)C5)nc(OC[C@@]56CCCN5C[C@H](F)C6)nc4c3F)c12 (single isomer, unassigned)
7.79

---

IC50: recorded values
Molecular target: K-Ras G12R (Homo sapiens, UniProt P01116, G12R)
Sequence (P01116 1-169 isoform P01116-2 G12R): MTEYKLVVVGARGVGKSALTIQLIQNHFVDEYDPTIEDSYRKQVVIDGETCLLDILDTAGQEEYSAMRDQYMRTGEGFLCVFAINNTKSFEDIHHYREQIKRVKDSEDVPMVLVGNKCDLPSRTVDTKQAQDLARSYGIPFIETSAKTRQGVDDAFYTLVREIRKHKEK
Experiment: GTP-K-Ras and cRAF interaction assay (GppNp-K-Ras), K-Ras G12R
Settings: read-out: K-Ras G12R GppNp Biochemical Activity (IC50)
Report only the number, with the unit nM understood.

Compound	Units	Meas Value
C#Cc1c(F)ccc2cc(O)cc(-c3ncc4c(N5CCCOC[C@H]5C)nc(OC[C@@]56CCCN5C[C@H](F)C6)nc4c3F)c12 (single isomer, unassigned) [Compound 16B]	nM	15.7

Consider the additional compound presented here.
Which measured IC50 value corresponds to C#Cc1c(F)ccc2cc(O)cc(-c3c(Cl)cc4c(N5CCCOCC5)nc(OC[C@@]56CCCN5C[C@H](F)C6)nc4c3F)c12 (atropisomer, axis not shown; (M)) [Compound 19B] ?
95.9

# credit: patent US20250019377A1
